- Test system: NCI-H1395
- PROCEDURE DETAILS: relative viability (nuclei count vs DMSO), 5 days (fraction); higher = more cells survive
- APPLIED CONDITIONS: first compound 0.1581 µM
ASSAY METRIC: relative viability

Please review the entries below; each comes with its answer.
| COMPOUND | relative viability |
| --- | --- |
| Nc1ccn([C@@H]2O[C@H](CO)[C@@H](O)[C@@H]2O)c(=O)n1 [Cytarabine] + N=C(N)NC(=N)NCCc1ccccc1 [Phenformin] (partner 250 µM) | 0.319 |
| Nc1ccn([C@@H]2O[C@H](CO)[C@@H](O)[C@@H]2O)c(=O)n1 [Cytarabine] + CC(=O)Nc1cccc(-n2c(=O)n(C3CC3)c(=O)c3c(Nc4ccc(I)cc4F)n(C)c(=O)c(C)c32)c1 [Trametinib] (partner 0.02 µM) | 0.524 |
| Nc1ccn([C@@H]2O[C@H](CO)[C@@H](O)[C@@H]2O)c(=O)n1 [Cytarabine] + NC(=O)Nc1cc(-c2cccc(F)c2)sc1C(=O)N[C@H]1CCCNC1 [AZD7762] (partner 0.2 µM) | 0.364 |

**Q:** Return reported relative viability. Input compound: Nc1ccn([C@@H]2O[C@H](CO)[C@@H](O)[C@@H]2O)c(=O)n1 [Cytarabine] + O=C(CCCCCCC(=O)Nc1ccccc1)NO [Vorinostat] (partner 1 µM)
**A:** 0.357
